target: 5-HT2A receptor (Homo sapiens); construct: host or cells: HEK293; assay: FLIPR Ca2+ flux functional assay, 5-HT2A; assay type: cell-based; details: agonist activity, Ca2+ flux, HEK293 cells
Sequence (P28223 whole entry): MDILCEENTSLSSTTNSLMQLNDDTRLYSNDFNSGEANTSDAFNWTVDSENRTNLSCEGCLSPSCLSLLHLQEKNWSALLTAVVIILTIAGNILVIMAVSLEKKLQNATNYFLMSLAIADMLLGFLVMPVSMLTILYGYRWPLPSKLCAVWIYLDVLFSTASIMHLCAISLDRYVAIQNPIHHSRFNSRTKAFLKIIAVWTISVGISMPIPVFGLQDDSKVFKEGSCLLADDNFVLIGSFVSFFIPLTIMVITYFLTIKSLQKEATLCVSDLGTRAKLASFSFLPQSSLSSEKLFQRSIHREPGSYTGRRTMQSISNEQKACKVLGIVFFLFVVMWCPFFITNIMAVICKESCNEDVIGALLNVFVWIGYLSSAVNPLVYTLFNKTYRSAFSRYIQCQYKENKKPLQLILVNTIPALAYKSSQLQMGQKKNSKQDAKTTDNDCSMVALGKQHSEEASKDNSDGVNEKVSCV
Catalogue of molecules with associated Emax
Numeric answer only, unit % assumed.

These recorded examples may help you get a feel for the data.
• CCN(C)CCc1c[nH]c2ccc3ocnc3c12 = 54
• CCN(CC)CCc1c[nH]c2c(F)cc(OC)cc12 = 95.8
• Cc1ccc2[nH]cc(CCN(C)C(C)C)c2c1O = 94.7

Input line: # query: Emax of entry `CCN(CCc1c[nH]c2cc(F)cc(OC)c12)C(C)C`
Output line: 81.4

Input line: # query: Emax of entry `CCN(C)CCc1c[nH]c2ccc3oc(C)nc3c12`
Output line: 69.1

Input line: # query: Emax of entry `CCN(C)CCc1c[nH]c2ccc(C)c(O)c12`
Output line: 79

Input line: # query: Emax of entry `CCN(CC)CCc1c[nH]c2ccc(F)c(F)c12`
Output line: 98.5

Input line: # query: Emax of entry `Cc1ccc2[nH]cc(CCN(C)C)c2c1O`
Output line: 63.1

Input line: # query: Emax of entry `COc1ccc(C)c2[nH]cc(CCN(C)C(C)C)c12`
Output line: 41.4

Input line: # query: Emax of entry `COc1cc(C)c2[nH]cc(CCN(C(C)C)C(C)C)c2c1`
Output line: 84

###

Catalogue of compounds with associated pEC50
biological target: 5-HT2B receptor (Homo sapiens); construct: host or cells: CHO-K1; assay: cell-based; conditions: agonist activity, Ca2+ flux, CHO-K1 cells; read-out: 5-HT2B EC50
Sequence (P41595 whole entry): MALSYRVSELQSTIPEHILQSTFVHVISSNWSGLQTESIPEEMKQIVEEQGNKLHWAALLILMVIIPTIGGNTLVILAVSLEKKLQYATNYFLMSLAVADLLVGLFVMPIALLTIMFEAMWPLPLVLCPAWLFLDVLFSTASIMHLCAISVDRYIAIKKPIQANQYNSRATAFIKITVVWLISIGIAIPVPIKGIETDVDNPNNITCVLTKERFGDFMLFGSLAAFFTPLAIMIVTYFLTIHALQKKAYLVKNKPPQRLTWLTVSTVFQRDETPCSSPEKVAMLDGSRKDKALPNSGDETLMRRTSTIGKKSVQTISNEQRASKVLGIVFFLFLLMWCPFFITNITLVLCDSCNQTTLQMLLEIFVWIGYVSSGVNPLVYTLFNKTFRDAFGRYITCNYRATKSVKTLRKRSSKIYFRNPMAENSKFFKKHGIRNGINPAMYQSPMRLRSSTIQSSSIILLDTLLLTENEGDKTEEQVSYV
pEC50: −log10 of the molar value.

These recorded examples may help you get a feel for the data.
- CCN(CC)CCc1c[nH]c2cc(F)cc(OC)c12 [Example P-98]: 5.26
- Cc1ccc2[nH]cc(CCN(C)C(C)C)c2c1O [Example P-66]: ≤ 5.00
- COc1ccc(C)c2[nH]cc(CCN(C(C)C)C(C)C)c12 [Example P-83]: < 5.00
- CN(C)CCc1c[nH]c2cc3ccoc3cc12 [Example P-2]: < 5.00
- CCN(C)CCc1c[nH]c2cc(F)c(F)cc12 [Example P-154]: ≤ 5.00

Input line: # query: pEC50 of entry CCN(CC)CCc1c[nH]c2ccc(F)c(F)c12 [Example P-145]
Output line: 7.63

Input line: # query: pEC50 of entry COc1ccc(F)c2[nH]cc(CCN(C)C)c12 [Example P-101]
Output line: < 5.00

Input line: # query: pEC50 of entry CCN(CC)CCc1c[nH]c2cc(C)c(OC)cc12 [Example P-45]
Output line: 6.07

Input line: # query: pEC50 of entry CCCN(CC)CCc1c[nH]c2c(C)cc(OC)cc12 [Example P-55]
Output line: < 5.00

Input line: # query: pEC50 of entry COc1cc(C)c2[nH]cc(CCN(C)C)c2c1 [Example P-50]
Output line: < 5.00

###

Catalogue of molecules with associated half-life
test: In vivo pharmacokinetics, plasma and brain exposure after IP dosing; parameters: species or system male C57BL/6 mice; conditions: mouse; male C57BL/6 mice, IP 10 mg/kg, plasma; read-out: Apparent T1/2 (converted)
Numeric answer only, unit min assumed.

These recorded examples may help you get a feel for the data.
* CCN(C)CCc1c[nH]c2c(C)cc(OC)cc12 | 36
* CCN(C)CCc1c[nH]c2ccc(OC)c(C)c12 | 30

# ---- query molecule ----
Input line: # query: half-life of entry `CCN(C)CCc1c[nH]c2cc(C)c(OC)cc12`
Output line: 36
